Data provenance: patent US11912723B2

Experimental system: KRAS G12D/RAF1 (Homo sapiens, UniProt P01116, G12D)
Construct: KRAS (1-169) proteins were expressed in E. coli at 18° C; His6-MBP (N, cleaved yes); made in house; host or cells: E. coli
Sequence (P01116 1-169 isoform P01116-2 G12D): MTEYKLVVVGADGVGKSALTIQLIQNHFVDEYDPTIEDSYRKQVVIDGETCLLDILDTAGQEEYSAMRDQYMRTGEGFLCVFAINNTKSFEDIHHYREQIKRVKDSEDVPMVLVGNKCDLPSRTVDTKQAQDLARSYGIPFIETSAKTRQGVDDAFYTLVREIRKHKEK
Experimental details: Protein-protein interaction (PPI) HTRF assay KRAS G12D/RAF1
Type: binding
Measurement parameters: KRAS G12D/RAF1, GppNHp-loaded KRAS; 30 minutes pre-incubation
Overview of recorded IC50 for various molecules
Property measured: IC50

>>> result_value("CN(O)C(=O)c1cc2n(n1)CCCN(c1nc(OC[C@@]34CCCN3C[C@H](F)C4)nc3c1CO[C@@]1(CCc4c(Cl)cccc41)C3)C2")
"> 100 µM"
>>> result_value("O=C(c1nn2c(c1Cl)CN(c1nc(OC[C@@]34CCCN3C[C@H](F)C4)nc3c1CO[C@@]1(CCc4c(Cl)cccc41)C3)CCC2)N1CCOCC1")
"10 to 100 µM"
>>> result_value("CN(C)C(=O)c1cc2n(n1)CCCN(c1nc(OC[C@@]34CCCN3C[C@H](F)C4)nc3c1CN(C)[C@@]1(CCCc4ccccc41)C3)C2")
"10 to 100 µM"

###

Experimental system: GST-tagged KRAS G12D (2-169) (Homo sapiens, UniProt P01116, G12D)
Construct: GST-tagged KRAS^G12D (2-169, Reaction Biology, MSC-11-539); MSC-11-502 (SOS1cat)
Sequence (P01116 2-169 isoform P01116-2 G12D): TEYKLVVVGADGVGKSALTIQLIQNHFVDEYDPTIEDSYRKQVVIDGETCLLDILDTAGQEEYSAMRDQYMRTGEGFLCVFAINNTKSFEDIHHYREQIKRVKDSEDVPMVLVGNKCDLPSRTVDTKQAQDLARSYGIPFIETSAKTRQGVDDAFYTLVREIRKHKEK
Experimental details: Nucleotide exchange assay (NEA), HTRF of SOS-mediated GTP-DY-647P1 binding
Measurement parameters: 5 nM GST-KRAS G12D, 20 nM SOScat, 150 nM GTP; compound 1 h at RT
Property measured: IC50

>>> result_value("F[C@H]1CN2CCC[C@@]2(COc2nc3c(c(N4C[C@H]5CC[C@@H](C4)N5)n2)COC2(C3)c3ccccc3-c3n[nH]cc32)C1 (stereo partly drawn)")
"1000 to 20000 nM"
>>> result_value("Oc1ccc2c(c1)C1(CCC2)Cc2nc(OC[C@@]34CCCN3C[C@H](F)C4)nc(N3CCCCCC3)c2CO1 (single isomer, unassigned) [Compound 7]")
"1000 to 20000 nM"
>>> result_value("CN1Cc2c(nc(OCC34CCCN3CC(F)C4)nc2N2CC3CCC(C2)C3NC#N)CC12CCCc1ccccc12 (stereo not drawn)")
"< 10 nM"
>>> result_value("CN1Cc2c(nc(OC[C@@]34CCCN3C[C@H](F)C4)nc2N2C[C@H]3CC[C@@H](C2)N3)C[C@]12CCCc1ccccc12")
"< 10 nM"
>>> result_value("CN(C)C(=O)c1cc2n(n1)CCCN(c1nc(OC[C@@]34CCCN3C[C@H](F)C4)nc3c1CO[C@]1(CCc4c(Cl)cccc41)C3)C2 [Compound 27A]")
"100 to 1000 nM"
>>> result_value("F[C@H]1CN2CCC[C@@]2(COc2nc3c(c(N4C[C@H]5CC[C@@H](C4)N5)n2)COC2(CCCc4c(Br)cccc42)C3)C1 (stereo partly drawn)")
"10 to 100 nM"

###

Experimental system: GST-tagged KRAS G12D (2-169) (Homo sapiens, UniProt P01116, G12D)
Construct: GST-tagged KRAS^G12D (2-169, Reaction Biology, MSC-11-539); MSC-11-502 (SOS1cat)
Experimental details: Nucleotide exchange assay (NEA), HTRF of SOS-mediated GTP-DY-647P1 binding
Measurement parameters: 5 nM GST-KRAS G12D, 20 nM SOScat, 150 nM GTP; compound 1 h at RT
Property measured: IC50

>>> result_value("CN(C)C(=O)c1cc2n(n1)CCCN(c1nc(OC[C@@]34CCCN3C[C@H](F)C4)nc3c1CN(C)C1(CCCc4ccc(O)cc41)C3)C2 (stereo partly drawn)")
"< 10 nM"
>>> result_value("CN(C)CC1(COc2nc3c(c(N4CCCn5nc(C(=O)N(C)C)c(Cl)c5C4)n2)CN(C)[C@@]2(CCCc4ccccc42)C3)CC1(F)F (stereo partly drawn)")
"< 10 nM"
>>> result_value("CN(C)C(=O)c1nn2c(c1Cl)CN(c1nc(OC[C@@]34CCCN3C[C@H](F)C4)nc3c1CN(CC#N)[C@@]1(CCCc4ccccc41)C3)CCC2")
"10 to 100 nM"
